- protocol text: Pharmacokinetic Determination (Mouse PK)
- Format: in vivo, female CD-1 mice
- condition details: female, CD-1, PO 10.0 mg/kg, Brain concentration vs plasma concentration at 2 hours post dosing, read-out: B/P ratio
Label met when Kp at 2 h >= 10; otherwise not met.

                                   compound  category
0  C[C@@H]1Cc2c([nH]c3ccccc23)[C@@H](c2c(F)cc(NC3CN(CCCF)C3)cc2F)N1CC(F)(F)CO [GDC9545, reference compound]   not met
1  CCCN1CC(Nc2ccc([C@@H]3c4[nH]c5ccccc5c4C[C@@H](C)N3C34CC(C3)C4)cc2)C1       met

(Q) Is reported Kp at 2 h greater than or equal to 10 here: C[C@@H]1Cc2c([nH]c3ccccc23)[C@@H](c2c(F)cc(N[C@H]3CCN(CCCF)C3)cc2F)N1C12CC(C1)C2
(A) met

(Q) Next entry: C[C@@H]1Cc2c([nH]c3ccccc23)[C@@H](c2ccc(N[C@H]3CCN(CCCF)C3)cc2)N1C12CC(C1)C2
(A) met

(Q) Next entry: C[C@@H]1Cc2c([nH]c3ccccc23)[C@@H](c2ccc(NC3CN(CCCF)C3)cn2)N1C12CC(C1)C2
(A) not met

(Q) Next entry: CCCN1CC[C@H](Nc2ccc([C@@H]3c4[nH]c5ccccc5c4C[C@@H](C)N3C34CC(C3)C4)cc2)C1
(A) not met

(Q) Next entry: CCCN1CC(Oc2ccc([C@@H]3c4[nH]c5ccccc5c4C[C@@H](C)N3C34CC(C3)C4)cc2)C1
(A) met

Attribution: patent US11999728B2
